Please provide measured pIC50 for the entries that follow.
Target: UBE2T/FANCLRING (ubiquitylation of GST-FANCLRING) (Homo sapiens)
Sequence (Q9NW38 275-375 limits assumed): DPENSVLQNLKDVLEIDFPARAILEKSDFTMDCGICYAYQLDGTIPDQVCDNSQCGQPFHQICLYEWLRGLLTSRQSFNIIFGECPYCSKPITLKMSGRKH
Assay: biochemical
Conditions: library stock, 10-point dose-response; read-out: Primary screen IC50
Numbers only, as −log10 of the molar value.

INSERT INTO assay_data (molecule, test_target, numeric_readout) VALUES
  ('COc1ccc(CNC(=O)c2ccc(-n3nccc3C)cc2)cc1C(=O)O [CU3]', 'UBE2T/FANCLRING (ubiquitylation of GST-FANCLRING) (Homo sapiens)', 4.29),
  ('Cn1ncc(C#N)c1NC(=O)Cc1coc2cc3c(cc12)CCC3 [CU8]', 'UBE2T/FANCLRING (ubiquitylation of GST-FANCLRING) (Homo sapiens)', 4.47),
  ('O=C(CCc1ccco1)NS(=O)(=O)c1cccc2ncccc12 [CU10]', 'UBE2T/FANCLRING (ubiquitylation of GST-FANCLRING) (Homo sapiens)', 4.96),
  ('Cc1nc2ccccc2n1CCNS(=O)(=O)c1ccc2c(c1)CC(=O)N2 [CU7]', 'UBE2T/FANCLRING (ubiquitylation of GST-FANCLRING) (Homo sapiens)', 4.19),
  ('Cc1nnc(N(C)CC2CCN(CC(C)O)CC2)c(C#N)c1C (stereo not shown) [CU9]', 'UBE2T/FANCLRING (ubiquitylation of GST-FANCLRING) (Homo sapiens)', 4.50);

Need pIC50 for each of these molecules.
1. O=C(c1ccc2n[nH]nc2c1)N1CCC(COc2ccccc2)CC1 [CU6]
2. NC(=O)[C@@H]1CCCN1C(=O)c1cc(-n2cccc2)ccc1Cl [CU12]
3. NCCN1C(=O)CC[C@H]2CN(Cc3cccc(-c4ccco4)c3)CC[C@H]21 [CU1]

1: 4.51; 2: 4.94; 3: 4.82

Need pIC50 for each of these molecules.
1. CCN1CCN(c2cc(C)nc3nc(CN4CCCCC4C)nn23)CC1 (stereo not shown) [CU2]
2. Cc1cc(C(=O)O)cc(S(=O)(=O)Nc2ccccc2-n2cccn2)c1C [CU4]

5.08
4.21
